// values below are reported pIC50
# System Under Test: UniProt:P04839
# Sequence (P04839 2-570): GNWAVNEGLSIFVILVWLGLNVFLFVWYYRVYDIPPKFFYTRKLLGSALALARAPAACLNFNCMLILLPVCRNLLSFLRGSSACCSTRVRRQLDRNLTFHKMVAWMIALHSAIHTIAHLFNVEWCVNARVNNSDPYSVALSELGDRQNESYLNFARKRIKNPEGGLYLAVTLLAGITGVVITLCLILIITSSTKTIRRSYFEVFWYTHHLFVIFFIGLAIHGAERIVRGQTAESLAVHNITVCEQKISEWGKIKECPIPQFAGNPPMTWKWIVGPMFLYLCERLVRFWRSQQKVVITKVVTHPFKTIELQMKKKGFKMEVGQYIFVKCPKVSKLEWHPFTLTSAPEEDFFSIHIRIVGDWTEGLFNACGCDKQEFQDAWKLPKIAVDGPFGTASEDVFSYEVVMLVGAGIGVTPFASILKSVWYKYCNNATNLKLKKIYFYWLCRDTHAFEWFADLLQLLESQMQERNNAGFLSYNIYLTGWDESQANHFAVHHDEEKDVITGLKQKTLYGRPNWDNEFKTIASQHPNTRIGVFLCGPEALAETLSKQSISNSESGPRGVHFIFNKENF
# Assay: Nox2 activity assay for primary screening (cell free, human neutrophil plasma membranes, LO12 luminescence)
# Format: biochemical
# Assay Conditions: Table 3; read-out: Nox2 (Cell Free)
Lab note — pIC50 values are minus log10 of concentrations in M.

Below are worked cases with known answers.
# Chemical Structure, Measurement Type, Recorded Result
measured = [
    ("COc1ccc(N2CCN(C(=O)c3cc4ccccc4[nH]3)CC2)cc1", "pIC50", 6.40),
    ("COc1ccc(N2CCN(C(=O)c3cc4cc(C(C)=O)ccc4[nH]3)CC2)cc1", "pIC50", 6.52),
    ("CCN1CCN(Cc2c(C(=O)N3CCN(c4ccc(OC)cc4)CC3)[nH]c3ccc(F)cc23)CC1", "pIC50", 6.10),
    ("COc1ccc(N2CCN(C(=O)c3[nH]c4ccc(F)cc4c3CNC3CCN(C)CC3)CC2)cc1", "pIC50", 6.15),
    ("COc1ccc(N2CCN(C(=O)c3nc4cc(F)ccc4[nH]3)CC2)cc1", "pIC50", 6.00),
    ("COc1ccc(N2CCN(C(=O)c3cc4cc(C(N)=O)ccc4[nH]3)CC2)cc1", "pIC50", 6.22),
    ("CCN(CC)CCNCc1c(C(=O)N2CCN(c3ccc(OC)cc3)CC2)[nH]c2ccc(F)cc12", "pIC50", 6.52),
    ("CCN(CC)Cc1c(C(=O)N2CCN(c3ccc(OC)cc3)CC2)[nH]c2ccc(F)cc12.Cl", "pIC50", 6.15),
]

Now for the molecule whose pIC50 we want.
// query Would you mind telling me what pIC50 value was observed for COc1ccc(N2CCN(C(=O)c3[nH]c4ccc(F)cc4c3CN3CCOCC3)CC2)cc1.Cl ?
// result 6.10

These measurements were taken from patent US9428478B2.
